Reference source: patent US20220324953A1

# tgt: T1, human CTGF (antigen of the Biacore assays) (human, UniProt P29279 27-349)
# T1 construct: also called antigen human CTGF; human CTGF protein
# T1 sequence (looked up): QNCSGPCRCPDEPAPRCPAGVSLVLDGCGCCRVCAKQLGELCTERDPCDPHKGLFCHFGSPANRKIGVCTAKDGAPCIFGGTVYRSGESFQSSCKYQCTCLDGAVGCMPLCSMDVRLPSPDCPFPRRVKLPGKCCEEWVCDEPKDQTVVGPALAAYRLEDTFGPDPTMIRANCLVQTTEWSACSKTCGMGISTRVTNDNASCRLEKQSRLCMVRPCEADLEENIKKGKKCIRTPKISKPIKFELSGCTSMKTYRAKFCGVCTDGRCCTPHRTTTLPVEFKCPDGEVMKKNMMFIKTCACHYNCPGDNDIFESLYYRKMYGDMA
# experiment_summary: Biacore, antibody captured on Protein A, CTGF in flow, 1:1 fit

{"binder": "Hu147-32wk (antibody, human IgG1, kappa, V domains shown) VH: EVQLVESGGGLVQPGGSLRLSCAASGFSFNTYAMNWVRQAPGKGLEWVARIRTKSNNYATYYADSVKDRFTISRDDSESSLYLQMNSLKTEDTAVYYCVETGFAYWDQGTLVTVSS VL: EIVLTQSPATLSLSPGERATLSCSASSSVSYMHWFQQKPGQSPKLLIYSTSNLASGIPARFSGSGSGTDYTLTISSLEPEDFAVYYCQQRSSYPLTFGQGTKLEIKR", "unit_annotation": "M⁻¹ s⁻¹", "kon": "1.46e+07"}
{"binder": "Hu95-31wk (antibody, human IgG1, kappa, V domains shown) VH: EVQLVQSGAEVKKPGASVKVSCKASGFTFTNYDIHWVKQAPGQRLEWMGLVYPYNGGTAYNQKFKDKVTLTFDTSASTAYMELSSLRSEDTAVYYCARWGLIPGTTSYFDVWGQGTTVTVSS VL: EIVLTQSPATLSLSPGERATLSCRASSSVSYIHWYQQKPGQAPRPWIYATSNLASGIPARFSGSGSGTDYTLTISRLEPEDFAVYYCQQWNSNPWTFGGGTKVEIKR", "unit_annotation": "M⁻¹ s⁻¹", "kon": "5.59e+06"}
